Measurement Target: T1, rat PRLR ECD-Fc fusion protein (rat, UniProt P05710 20-229)
T1 construct: extracellular domain; not shown: Fc region (captured by goat anti-human Fc)
T1 sequence (looked up): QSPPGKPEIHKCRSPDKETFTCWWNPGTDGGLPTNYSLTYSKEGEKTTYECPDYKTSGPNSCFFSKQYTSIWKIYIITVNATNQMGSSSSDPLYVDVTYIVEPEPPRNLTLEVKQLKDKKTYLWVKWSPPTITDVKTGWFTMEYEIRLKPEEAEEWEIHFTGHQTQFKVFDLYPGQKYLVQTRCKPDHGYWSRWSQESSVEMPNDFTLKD
Assay Text: ELISA on ECD
Method: Plates were blocked for 1 hour with Superblock (Pierce) and washed (3×) with wash buffer (lx PBS (pH 7.4), 0.05% Tween 20). ECD proteins were bound to the appropriate antibody (1 hour) in binding buffer (wash buffer plus 10% Superblock), washed (3×, wash buffer), and then incubated with serial dilutions of antibodies (1 hour) in binding buffer. […] Curves were fit with GraphPad 5 (Prizm) and EC50's were determined with curve fitting function of GraphPad 5.
pEC50 values by entry
# pEC50: negative log10 of molar concentration; output just the value

Observe how each entry below is paired with its result.
chAb8 (antibody, human IgG1, kappa, V domains shown, chimeric, murine variable and human G1/kappa constant regions) VH: EVQLQQSGPELVKPGASVKISCKASGYTFTDYNIHWVKQSHGKSLEWIGYIYPNNDGTGYNQKFKSKATLTVDNSSSTAYMEVRSLTSEDSAVYYCARGDGNYVGDMDYWGQGTSVTVSS VL: DIQMTQSPASLSASVGETVTITCRASENIYSYLAWYQQKQGKPPQLLVYNAKTLAEGVPSRFSGGGSGTQFSLKINSLQPEDFGSYYCQHHYATPFTFGSGTKLEIKT    9.52
chAb7 (antibody, human IgG1, kappa, V domains shown, chimeric, murine variable and human G1/kappa constant regions) VH: QVQLQQPGAELVMPGTSVKLSCKASGYTFTSYWIHWVKQRPGQGLEWIGEIDPSDSYTNYNQKFKGKATLTVDRSSSTAYMQLSSLTSEDSAVYYCGRSFFTNWFAYWGQGTLVTVSA VL: DVVMTQTPLSLPVSLGDQASISCRSSQSLVHSNGNTYLHWYLQKPGQSPKLLIYKVSNRFSGVPDRFSGSGSGTDFTLKINRVEAEDLGVYFCSQSTHVPFTFGSGTKLEIKT    9.80

I am curious: what pEC50 value has been reported for Ab8 (antibody, V domains shown, murine monoclonal, isotype G2b; also called murine Ab8) VH: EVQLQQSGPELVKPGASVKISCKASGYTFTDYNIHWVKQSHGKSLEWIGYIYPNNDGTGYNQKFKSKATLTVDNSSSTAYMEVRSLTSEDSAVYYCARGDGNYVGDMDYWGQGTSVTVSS VL: DIQMTQSPASLSASVGETVTITCRASENIYSYLAWYQQKQGKPPQLLVYNAKTLAEGVPSRFSGGGSGTQFSLKINSLQPEDFGSYYCQHHYATPFTFGSGTKLEIK ?
9.69
